biological target: SARS-CoV-2 S1-RBD fused to human Fc (S1-RBD-Fc) (SARS-CoV-2 Wuhan; human); test: SPR, antigen on chip
The label Criterion met is reserved for koff strictly under 0.0003 s⁻¹; Criterion not met covers values equal to or above it.

Report whether reported koff is lower than 0.0003 s⁻¹ (strictly) for NRCoV2-07 VHH (VHH) VHH: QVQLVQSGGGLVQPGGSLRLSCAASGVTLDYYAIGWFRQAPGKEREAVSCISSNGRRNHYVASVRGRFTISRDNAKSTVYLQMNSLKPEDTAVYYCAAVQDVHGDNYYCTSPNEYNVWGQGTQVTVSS
Criterion met

Report whether reported koff is lower than 0.0003 s⁻¹ (strictly) for NRCoV2-03 VHH (VHH) VHH: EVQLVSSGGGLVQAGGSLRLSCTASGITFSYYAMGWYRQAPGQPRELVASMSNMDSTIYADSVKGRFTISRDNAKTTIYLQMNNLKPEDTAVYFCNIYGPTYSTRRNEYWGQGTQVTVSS
Criterion met

Report whether reported koff is lower than 0.0003 s⁻¹ (strictly) for NRCoV2-14 VHH (VHH) VHH: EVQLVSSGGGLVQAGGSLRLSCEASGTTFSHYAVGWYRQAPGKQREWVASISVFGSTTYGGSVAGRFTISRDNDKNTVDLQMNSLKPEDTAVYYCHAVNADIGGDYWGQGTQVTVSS
Criterion not met

Report whether reported koff is lower than 0.0003 s⁻¹ (strictly) for NRCoV2-10 VHH (VHH) VHH: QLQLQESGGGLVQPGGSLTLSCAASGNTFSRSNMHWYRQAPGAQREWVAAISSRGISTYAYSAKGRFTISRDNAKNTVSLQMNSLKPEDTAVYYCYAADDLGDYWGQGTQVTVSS
Criterion met

Report whether reported koff is lower than 0.0003 s⁻¹ (strictly) for NRCoV2-04 VHH (VHH) VHH: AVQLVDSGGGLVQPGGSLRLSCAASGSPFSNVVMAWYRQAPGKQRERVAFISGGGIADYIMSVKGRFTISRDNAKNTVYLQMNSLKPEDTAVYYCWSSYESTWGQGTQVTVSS
Criterion not met

Report whether reported koff is lower than 0.0003 s⁻¹ (strictly) for NRCoV2-06 VHH (VHH) VHH: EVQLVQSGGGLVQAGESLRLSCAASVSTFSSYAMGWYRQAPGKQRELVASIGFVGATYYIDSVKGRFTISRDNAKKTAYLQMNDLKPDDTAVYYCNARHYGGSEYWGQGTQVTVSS
Criterion not met

Report whether reported koff is lower than 0.0003 s⁻¹ (strictly) for NRCoV2-17 VHH (VHH) VHH: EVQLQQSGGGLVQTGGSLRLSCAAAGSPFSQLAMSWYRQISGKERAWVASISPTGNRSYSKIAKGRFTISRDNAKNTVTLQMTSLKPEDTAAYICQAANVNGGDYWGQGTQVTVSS
Criterion met

Report whether reported koff is lower than 0.0003 s⁻¹ (strictly) for NRCoV2-05 VHH (VHH) VHH: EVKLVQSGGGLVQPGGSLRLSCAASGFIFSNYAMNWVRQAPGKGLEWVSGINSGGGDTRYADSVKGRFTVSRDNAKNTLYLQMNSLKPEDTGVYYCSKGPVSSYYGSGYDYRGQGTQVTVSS
Criterion not met
